Origin of the recorded values: paper PMC10574094

Biological target: full-length SHP2 (1-528) (Homo sapiens, UniProt Q06124)
Construct: The SHP2 protein (Aa 1–528) was cloned into a pET-21a(+) vector; His
Sequence (Q06124 1-528): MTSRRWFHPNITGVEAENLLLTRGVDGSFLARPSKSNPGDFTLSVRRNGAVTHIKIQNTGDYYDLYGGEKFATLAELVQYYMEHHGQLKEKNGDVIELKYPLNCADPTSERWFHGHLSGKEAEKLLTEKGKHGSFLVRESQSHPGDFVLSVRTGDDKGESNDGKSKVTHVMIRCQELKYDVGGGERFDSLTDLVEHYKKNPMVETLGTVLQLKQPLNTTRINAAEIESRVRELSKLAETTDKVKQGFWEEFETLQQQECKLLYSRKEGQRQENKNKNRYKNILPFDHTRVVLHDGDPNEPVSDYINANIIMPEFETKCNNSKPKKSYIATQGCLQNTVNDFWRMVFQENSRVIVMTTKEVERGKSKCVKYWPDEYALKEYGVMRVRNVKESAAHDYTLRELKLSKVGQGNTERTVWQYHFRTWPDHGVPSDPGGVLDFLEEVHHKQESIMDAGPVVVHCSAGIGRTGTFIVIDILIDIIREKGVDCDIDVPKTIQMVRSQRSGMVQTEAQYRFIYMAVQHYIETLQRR
Test: SHP2 allosteric inhibition assay (DiFMUP substrate)
Conditions: full length SHP2, enzymatic assay
Method: The SHP2 protein (Aa 1–528) was cloned into a pET-21a(+) vector. Bacterial BL21(DE3) (Novagen) was used as an expression host, and the induction of protein expression was carried out in LB media with 1 mM IPTG at 18 °C overnight. […] Proteins used for inhibition assays were purified using Ni-NTA resin (Qiagen, Hilden, Germany) followed by size exclusion column chromatography (ÄKTA pure, Cytiva, Marlborough, MA, USA) and the purity was determined to be >95% by SDS-PAGE and Coomassie staining. […]
pIC50: −log10 of the molar value.
observable: pIC50

Q. What value of measured pIC50 is listed for Cc1ncsc1-c1ccc([C@H](C)NC(=O)[C@@H]2C[C@@H](O)CN2C(=O)[C@@H](NC(=O)CCOCCOCCOCCOCCNC(=O)CCCCCC2(CN)CCN(c3cnc(Sc4cccc(Cl)c4Cl)c(N)n3)CC2)C(C)(C)C)cc1 ?
A. 6.81

Q. Entry Cc1ncsc1-c1ccc([C@H](C)NC(=O)[C@@H]2C[C@@H](O)CN2C(=O)[C@@H](NC(=O)CCCCCCCCCCN2CCN(C(=O)CCCCCC3(CN)CCN(c4cnc(Sc5cccc(Cl)c5Cl)c(N)n4)CC3)CC2)C(C)(C)C)cc1 has what pIC50?
A. 6.96

Q. Param item = Cc1ncsc1-c1ccc([C@H](C)NC(=O)[C@@H]2C[C@@H](O)CN2C(=O)[C@@H](NC(=O)CCOCCOCCOCCNC(=O)CCCCCC2(CN)CCN(c3cnc(Sc4cccc(Cl)c4Cl)c(N)n3)CC2)C(C)(C)C)cc1 ; retrieve measured pIC50.
A. 6.80

Q. Return reported pIC50; argument: Cc1ncsc1-c1ccc([C@H](C)NC(=O)[C@@H]2C[C@@H](O)CN2C(=O)[C@@H](NC(=O)CCCCCCCCCCCNC(=O)CCCCCC2(CN)CCN(c3cnc(Sc4cccc(Cl)c4Cl)c(N)n3)CC2)C(C)(C)C)cc1
A. 6.98

Q. I would be grateful if you could share the reported pIC50 for Cc1ncsc1-c1ccc([C@H](C)NC(=O)[C@@H]2C[C@@H](O)CN2C(=O)[C@@H](NC(=O)CCCCCCCCN2CCN(C(=O)CCCCCC3(CN)CCN(c4cnc(Sc5cccc(Cl)c5Cl)c(N)n4)CC3)CC2)C(C)(C)C)cc1 .
A. 6.98

Q. Which pIC50 value belongs to Cc1ncsc1-c1ccc([C@H](C)NC(=O)[C@@H]2C[C@@H](O)CN2C(=O)[C@@H](NC(=O)CCCCCCCN2CCN(C(=O)CCCCCC3(CN)CCN(c4cnc(Sc5cccc(Cl)c5Cl)c(N)n4)CC3)CC2)C(C)(C)C)cc1 ?
A. 6.92

Q. Which pIC50 is listed for Cc1ncsc1-c1ccc([C@H](C)NC(=O)[C@@H]2C[C@@H](O)CN2C(=O)[C@@H](NC(=O)CCCCCCCCCNC(=O)CCCCCC2(CN)CCN(c3cnc(Sc4cccc(Cl)c4Cl)c(N)n3)CC2)C(C)(C)C)cc1 ?
A. 6.88

Q. Field request: pIC50 | item: Cc1ncsc1-c1ccc([C@H](C)NC(=O)[C@@H]2C[C@@H](O)CN2C(=O)[C@@H](NC(=O)CCCCCCCCCN2CCN(C(=O)CCCCCC3(CN)CCN(c4cnc(Sc5cccc(Cl)c5Cl)c(N)n4)CC3)CC2)C(C)(C)C)cc1
A. 7.02

Q. Fill blank: measured pIC50 of the compound Cc1ncsc1-c1ccc([C@H](C)NC(=O)[C@@H]2C[C@@H](O)CN2C(=O)[C@@H](NC(=O)CCCCCCCCCCNC(=O)CCCCCC2(CN)CCN(c3cnc(Sc4cccc(Cl)c4Cl)c(N)n3)CC2)C(C)(C)C)cc1 is ____.
A. 6.91

Q. What value of pIC50 has been recorded for this entry: Cc1ncsc1-c1ccc([C@H](C)NC(=O)[C@@H]2C[C@@H](O)CN2C(=O)[C@@H](NC(=O)CCCCCCCNC(=O)CCCCCC2(CN)CCN(c3cnc(Sc4cccc(Cl)c4Cl)c(N)n3)CC2)C(C)(C)C)cc1
A. 6.91

Q. If you can, please state the reported pIC50 value of NCC1(CCCCCC(=O)O)CCN(c2cnc(Sc3cccc(Cl)c3Cl)c(N)n2)CC1 .
A. 7.05

Q. Please give the measured pIC50 for this compound: Cc1ncsc1-c1ccc([C@H](C)NC(=O)[C@@H]2C[C@@H](O)CN2C(=O)[C@@H](NC(=O)CCOCCOCCOCCOCCOCCNC(=O)CCCCCC2(CN)CCN(c3cnc(Sc4cccc(Cl)c4Cl)c(N)n3)CC2)C(C)(C)C)cc1
A. 6.78

Q. What value of measured pIC50 is listed for Cc1ncsc1-c1ccc([C@H](C)NC(=O)[C@@H]2C[C@@H](O)CN2C(=O)[C@@H](NC(=O)CCCCCNC(=O)CCCCCC2(CN)CCN(c3cnc(Sc4cccc(Cl)c4Cl)c(N)n3)CC2)C(C)(C)C)cc1 ?
A. 6.86

* * *

Experiment: Pharmacokinetics in mice, single IP injection
Type: in vivo
Conditions: Nude, mouse, plasma, intraperitoneal, 50 mg/kg, 50 mg/kg IP, 6 h, individual animals
Description: Experiments on mice were carried out in accordance with the regulations of the Institutional Animal Care and Use Committees at Purdue University. All mice were housed under pathogen-free conditions in the animal facility and received autoclaved water and food. Eight to ten weeks-old Nude mice were used in the study. For pharmacokinetic studies, mice were administered a single dose of P9 at 25 or 50 mg/kg via IP injection. […]
observable: concentration at 6 h (nM)
Enter your answer as a number in nM; do not include the unit.

Q. Dear colleague, I am looking for the recorded concentration at 6 h of the following compound: Cc1ncsc1-c1ccc([C@H](C)NC(=O)[C@@H]2C[C@@H](O)CN2C(=O)[C@@H](NC(=O)CCCCCCCCCN2CCN(C(=O)CCCCCC3(CN)CCN(c4cnc(Sc5cccc(Cl)c5Cl)c(N)n4)CC3)CC2)C(C)(C)C)cc1
A. 550

* * *

Test: Pharmacokinetics in mice, single IP injection
Assay type: in vivo
Conditions: Nude, mouse, plasma, intraperitoneal, 25 mg/kg, 25 mg/kg IP, 1 h, individual animals
Description: Experiments on mice were carried out in accordance with the regulations of the Institutional Animal Care and Use Committees at Purdue University. All mice were housed under pathogen-free conditions in the animal facility and received autoclaved water and food. Eight to ten weeks-old Nude mice were used in the study. For pharmacokinetic studies, mice were administered a single dose of P9 at 25 or 50 mg/kg via IP injection. […]
observable: concentration at 1 h (nM)
Give the number; nM is assumed, so skip it.

Q. Could you share which concentration at 1 h value was measured for Cc1ncsc1-c1ccc([C@H](C)NC(=O)[C@@H]2C[C@@H](O)CN2C(=O)[C@@H](NC(=O)CCCCCCCCCN2CCN(C(=O)CCCCCC3(CN)CCN(c4cnc(Sc5cccc(Cl)c5Cl)c(N)n4)CC3)CC2)C(C)(C)C)cc1 ?
A. 1020

* * *

Assay: Pharmacokinetics in mice, single IP injection
Type: in vivo
Settings: Nude, mouse, plasma; mice, single IP 25 mg/kg
observable: Tmax (h)
All answers are understood in h, so give the number only.

Q. Recorded Tmax of Cc1ncsc1-c1ccc([C@H](C)NC(=O)[C@@H]2C[C@@H](O)CN2C(=O)[C@@H](NC(=O)CCCCCCCCCN2CCN(C(=O)CCCCCC3(CN)CCN(c4cnc(Sc5cccc(Cl)c5Cl)c(N)n4)CC3)CC2)C(C)(C)C)cc1 [P9] , please.
A. 2

* * *

Assay: Pharmacokinetics in mice, single IP injection
Assay type: in vivo
Settings: Nude, mouse, plasma, intraperitoneal, 50 mg/kg, 50 mg/kg IP, 1 h, individual animals
observable: concentration at 1 h (nM)
Give the value, in units of nM, as a plain number.

Q. Could you tell me which concentration at 1 h is on file for Cc1ncsc1-c1ccc([C@H](C)NC(=O)[C@@H]2C[C@@H](O)CN2C(=O)[C@@H](NC(=O)CCCCCCCCCN2CCN(C(=O)CCCCCC3(CN)CCN(c4cnc(Sc5cccc(Cl)c5Cl)c(N)n4)CC3)CC2)C(C)(C)C)cc1 [P9] ?
A. 2510

* * *

Assay: Pharmacokinetics in mice, single IP injection
Type: in vivo
Conditions: Nude, mouse, plasma; mice, single IP 50 mg/kg
observable: Tmax (h)
Your answer is read as h, so omit the unit and give the number.

Q. Bench note: what Tmax did Cc1ncsc1-c1ccc([C@H](C)NC(=O)[C@@H]2C[C@@H](O)CN2C(=O)[C@@H](NC(=O)CCCCCCCCCN2CCN(C(=O)CCCCCC3(CN)CCN(c4cnc(Sc5cccc(Cl)c5Cl)c(N)n4)CC3)CC2)C(C)(C)C)cc1 [P9] show?
A. 2
